Tm RNA: recorded values
- System: RNA target strand SEQ ID NO 9 (25 base sequence from the initiation codon region of the HIV-1 gag mRNA)
- test method notes: Thermal melting study, duplex with RNA target strand
- Type: binding
- settings: duplex with RNA SEQ ID NO 9; 10 mM disodium hydrogen phosphate pH 7.5, 100 mM NaCl; 2.0 μM total strands
The answer is to be given in °C; state only the numeric part.

Worked cases, Tm RNA given:
SEQ ID NO 7: Control phosphodiester oligonucleotide containing all 3'-5' linkages (CTCTCGCACCCATCTCTCTCCTTCT; all phosphodiester, sugars by position and methylation of C not given here) [reference compound] | 70.5
SEQ ID NO 4: Phosphodiester MBO with three 2'-5' linkages at each end and an additional three in the middle (antisense CUCTCGCACCCAUCTCTCTCCUUCT; phosphodiester, three 2'-5' linkages at each end and three in middle, further chemistry not given here) | 64.5

Moving on to the next substance.
Look up and state reported Tm RNA for SEQ ID NO 5: MBO with nine 2'-5'-linkages; 2'-5'-phosphodiester and 3'-5'-phosphorothioate linkages (antisense CUCTCGCACCCAUCTCTCTCCUUCT; nine 2'-5' phosphodiester linkages, other linkages 3'-5' phosphorothioate, further chemistry not given here) 61.2

###

- System: HIV-1
- test method notes: Inhibition of HIV-1 replication in cell culture (MT-4 cells, MTT)
- Assay type: cell-based
- settings: 6 days
[25] = 2'-5' internucleotide linkage (phosphodiester)
measured property: pIC50
Entry type: numeric. Quantity: pIC50, the -log10 of concentration in molar units.

Worked cases, pIC50 given:
SEQ ID NO 3: Phosphorothioate analog of SEQ ID NO 1 (antisense CUCTCGCACCCATCTCTCTCCUUCT; phosphorothioate, chemistry not fully specified) | 7.53
SEQ ID NO 8: Control phosphorothioate oligonucleotide containing all 3'-5' linkages (CTCTCGCACCCATCTCTCTCCTTCT; all phosphorothioate, sugars by position and methylation of C not given here) [reference compound] | 7.60

Moving on to the next substance.
Look up and state reported pIC50 for SEQ ID NO 2: MBO with three 2'-5'-linkages at each end; 2'-5'-phosphodiester and 3'-5'-phosphorothioate linkages (antisense CUCTCGCACCCATCTCTCTCCUUCT; linkages [25]3 s18 [25]3 (s phosphorothioate, o phosphodiester), sugars by position and methylation of C not given here) 7.00

###

- Tested on: DNA target strand SEQ ID NO 10 (25 base sequence from the initiation codon region of the HIV-1 gag mRNA)
- test method notes: Thermal melting study, duplex with DNA target strand
- Type: binding
- settings: duplex with DNA SEQ ID NO 10; 10 mM disodium hydrogen phosphate pH 7.5, 100 mM NaCl; 2.0 μM total strands
[25] = 2'-5' internucleotide linkage (phosphodiester)
Tm DNA: recorded values
The answer is to be given in °C; state only the numeric part.

SEQ ID NO 3: Phosphorothioate analog of SEQ ID NO 1 (antisense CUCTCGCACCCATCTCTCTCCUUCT; phosphorothioate, chemistry not fully specified) | 51.9
SEQ ID NO 7: Control phosphodiester oligonucleotide containing all 3'-5' linkages (CTCTCGCACCCATCTCTCTCCTTCT; all phosphodiester, sugars by position and methylation of C not given here) [reference compound] | 63.5
SEQ ID NO 5: MBO with nine 2'-5'-linkages; 2'-5'-phosphodiester and 3'-5'-phosphorothioate linkages (antisense CUCTCGCACCCAUCTCTCTCCUUCT; nine 2'-5' phosphodiester linkages, other linkages 3'-5' phosphorothioate, further chemistry not given here) | 43.2

Look up and state reported Tm DNA for SEQ ID NO 1: Phosphodiester MBO with three 2'-5'-linkages at each of the 5'- and 3'-ends, complementary to HIV-1 gag mRNA (antisense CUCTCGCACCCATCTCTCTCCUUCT; linkages [25]3 o18 [25]3 (s phosphorothioate, o phosphodiester), sugars by position and methylation of C not given here) 60.6

Look up and state reported Tm DNA for SEQ ID NO 2: MBO with three 2'-5'-linkages at each end; 2'-5'-phosphodiester and 3'-5'-phosphorothioate linkages (antisense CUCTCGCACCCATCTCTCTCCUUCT; linkages [25]3 s18 [25]3 (s phosphorothioate, o phosphodiester), sugars by position and methylation of C not given here) 52.5

Look up and state reported Tm DNA for SEQ ID NO 6: Phosphorothioate analog of SEQ ID NO 4, with nine 2'-5' linkages (antisense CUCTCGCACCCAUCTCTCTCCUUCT; all linkages phosphorothioate, nine 2'-5' linkages, further chemistry not given here) 39.4
